target: HIV-1 RT-associated RNase H (Human immunodeficiency virus type 1 group M subtype B); construct: quantification of RNase H activity of reverse transcriptase (RT) enzyme; assay: RT RNase H polymerase-independent cleavage assay; type: biochemical
Hi! Could you tag entries with IC50 below 9 µM as rule met, and those at or above as rule not met? Much appreciated.

These solved cases illustrate the format of a correct answer.
>>> class("O=C1CSC(c2ccccc2O)N1c1nc(-c2cccc(S(=O)(=O)N3CCCC3)c2)cs1 (centres unmarked)")
"rule not met"
>>> class("O=C1CSC(c2ccc(F)cc2)N1c1cccc(S(=O)(=O)Nc2nccs2)c1 (centres unmarked)")
"rule not met"
>>> class("O=C1CSC(c2ccc(F)cc2)N1c1nc(-c2ccc(S(=O)(=O)N3CCOCC3)cc2)cs1 (centres unmarked)")
"rule not met"

Task: Please determine if O=C1CSC(c2c(F)cccc2F)N1c1nc2cc(-c3ccccc3)c(-c3ccccc3)cc2s1 (centres unmarked) is below 9 µM in terms of IC50.
Output: rule not met

Task: Please determine if O=C1CSC(c2c(Cl)cccc2Cl)N1c1nc2ccc(C(F)(F)F)cc2s1 (centres unmarked) is below 9 µM in terms of IC50.
Output: rule not met

Task: Please determine if O=C1CSC(c2c(F)cccc2F)N1c1nc(-c2ccc(S(=O)(=O)N3CCOCC3)cc2)cs1 (centres unmarked) is below 9 µM in terms of IC50.
Output: rule not met

Reference for the values: paper PMC11946194
